System: RXF 393
Test: NCI tumour cell line growth inhibition, 48 h
The source made the active and inactive calls. Cut-off read from the data, not from the text of the source: active = GI50 up to about 1.1 µM and inactive = higher.
readout_name: GI50

Below are worked cases with known answers.
Q: // query GI50 value for entry CSc1nc2c(c(=O)n1C)N=C(c1ccc(Cl)cc1)CC(c1ccccc1)N2 (stereo not drawn)
A: 39.4 µM (inactive)

Q: // query GI50 value for entry Cc1c2n(c(=O)[nH]c1=O)C1OC(CO)C(O2)C1O (stereo not drawn)
A: > 100 µM (inactive)

Q: // query GI50 value for entry "C=CNC(=O)NC(=O)CSc1nc(=O)c(-c2ccccc2NC(=O)C(F)(F)F)n[nH]1"
A: > 100 µM (inactive)

Q: // query GI50 value for entry CCN(N=O)C1C2(CCCC2)NC(=O)C12CCCC2 (stereo not drawn)
A: > 100 µM (inactive)

Q: // query GI50 value for entry CCN1CCC(O)(/C=C/c2ccccc2)C(C(=O)/C=C/c2ccccc2)C1 (stereo not drawn)
A: 1.67 µM (inactive)

Q: // query GI50 value for entry "Cc1n[nH]c(=O)n1/N=C\CC/C=N\n1c(C)n[nH]c1=O"
A: > 100 µM (inactive)

Q: // query GI50 value for entry "Cc1nc2ccc(C(F)(F)F)cc2nc1Nc1ccc(Cl)c(Cl)c1"
A: 6.49 µM (inactive)

Q: // query GI50 value for entry "N#Cc1ccccc1C(Cl)(Cl)c1cnccn1"
A: 26.4 µM (inactive)

Next:
Q: // query GI50 value for entry "Cc1ccc(/C=N/Nc2nc3ccccc3s2)s1"
A: 82.6 µM (inactive)

Q: // query GI50 value for entry "CN(C)c1ccc(/C=C/c2ccnc3ccc4ccccc4c23)cc1"
A: 17.7 µM (inactive)

Q: // query GI50 value for entry "O=C(CC/C(C/C(=N/O)c1ccc(F)cc1)=N/O)N(Cc1ccccc1)Cc1ccccc1"
A: > 100 µM (inactive)

Q: // query GI50 value for entry "O=c1cnn(C/C=C\CO)c(=O)[nH]1"
A: > 100 µM (inactive)

Q: // query GI50 value for entry "CC(=O)n1nnc2ccc([N+](=O)[O-])cc21"
A: > 100 µM (inactive)

====

System: SN12C
Test: NCI tumour cell line growth inhibition, 48 h
Activity calls are given as the source filed them. No stated cut-off is given here; in the data, active = GI50 up to about 1.1 µM and inactive = higher.
I would appreciate it if you answered using one of these outcomes: active, inactive

Q: Kindly provide the recorded test outcome for the following compound: "COC(=O)Cc1cc(=O)oc2c1C(=O)CCC2"
A: inactive

Q: Kindly provide the recorded test outcome for the following compound: CCOC(=O)/C=C1\Oc2ccccc2C1(C)O (stereo unspecified)
A: inactive

Next:
Q: Kindly provide the recorded test outcome for the following compound: CNC1CC(n2cc(C)c(=O)[nH]c2=O)OC1CO (stereo unspecified)
A: inactive

Q: Kindly provide the recorded test outcome for the following compound: "NC(=O)c1ccccc1NC(=O)C(=O)Nc1n[nH]c(N)n1"
A: inactive

Q: Kindly provide the recorded test outcome for the following compound: CC1CC/C(=C\c2ccc(F)cc2)C2=C1C(c1ccc(F)cc1)n1c(s/c(=C\c3ccc(Cl)cc3)c1=O)=N2 (stereo unspecified)
A: inactive

Q: Kindly provide the recorded test outcome for the following compound: "CCCc1[nH]c(SCCCCCCCCSc2nc(-c3ccc(F)cc3)c(CCC)[nH]2)nc1-c1ccc(F)cc1"
A: inactive

Q: Kindly provide the recorded test outcome for the following compound: "Cc1n[nH]c(=O)n1/N=C\CC/C=N\n1c(C)n[nH]c1=O"
A: inactive

Q: Kindly provide the recorded test outcome for the following compound: "CC(=O)Nc1cccc2[nH]c3ccccc3c(=O)c12"
A: inactive

Q: Kindly provide the recorded test outcome for the following compound: "CCOC(=N)n1c(=O)n(C2=NCCN2)c2ccccc21"
A: inactive

Q: Kindly provide the recorded test outcome for the following compound: "Cc1cccc(NC(=O)C(=O)C2C(=O)NC(=O)NC2=O)c1C"
A: inactive

Q: Kindly provide the recorded test outcome for the following compound: "CCCC(=O)Oc1c2ccsc2c(OC(=O)CCC)c2ccsc12"
A: active
